Molecular target: Tubulin (Bos taurus, UniProt Q6B856+Q862L2+Q862F3)
Assay: Inhibitory concentration required against MAP-rich tubulin polymerization
Format: functional
Binary call on IC50 with cut-off 0.7 µM: strictly below means rule met, and equality or higher means rule not met.

>  <molecule>
COc1ccc(N)cc1C(=O)c1cc(OC)c(OC)c(OC)c1

>  <label-class>
rule not met

$$$$
>  <molecule>
COc1ccc(C(=O)c2cc(OC)c(OC)c(OC)c2)cc1O [PHENSTATIN]

>  <label-class>
rule met

$$$$
>  <molecule>
COc1ccc(N)c(C(=O)c2cc(OC)c(OC)c(OC)c2)c1

>  <label-class>
rule not met

$$$$
>  <molecule>
COc1cc(N)cc(C(=O)c2cc(OC)c(OC)c(OC)c2)c1

>  <label-class>
rule not met

$$$$
>  <molecule>
COc1ccc(C(=O)c2cc(OC)c(OC)c(OC)c2)cc1N

>  <label-class>
rule met

$$$$
>  <molecule>
COc1ccc(Cc2cc(OC)c(OC)c(OC)c2)cc1N

>  <label-class>
rule not met

$$$$
>  <molecule>
COc1cc(C(=O)c2cc(N)cc(Cl)c2)cc(OC)c1OC

>  <label-class>
rule not met

$$$$
>  <molecule>
COc1cc(C(=O)c2cc(Cl)ccc2N)cc(OC)c1OC

>  <label-class>
rule met

$$$$
>  <molecule>
COc1cc(C(=O)c2ccc(OC(C)C)c(N)c2)cc(OC)c1OC

>  <label-class>
rule not met

$$$$
>  <molecule>
COc1cc(C(=O)c2cc(N)ccc2Cl)cc(OC)c1OC

>  <label-class>
rule met

$$$$
>  <molecule>
COc1ccc(C(=O)c2cc(OC)c(OC)c(OC)c2)c(N)c1

>  <label-class>
rule met

$$$$
>  <molecule>
COc1cc(C(=O)c2ccc(Cl)c(N)c2)cc(OC)c1OC

>  <label-class>
rule not met

$$$$
>  <molecule>
COc1cc(C(=O)c2ccc(Cl)cc2N)cc(OC)c1OC

>  <label-class>
rule not met

$$$$
>  <molecule>
CCCOc1ccc(C(=O)c2cc(OC)c(OC)c(OC)c2)cc1N

>  <label-class>
rule not met

$$$$

###

Tested on: KB
Experiment: In vitro cytotoxic activity against human KB cell line of epidermoid carcinoma
Format: functional, cell-based
property: IC50 (nM)

>  <compound-smiles>
COc1ccc(C(=O)c2cc(OC)c(OC)c(OC)c2)cc1O

>  <numeric-result>
30

$$$$
>  <compound-smiles>
COc1ccc(C(=O)c2cc(OC)c(OC)c(OC)c2)cc1N

>  <numeric-result>
32

$$$$
>  <compound-smiles>
COc1cc(C(=O)c2ccc(Cl)cc2N)cc(OC)c1OC

>  <numeric-result>
710

$$$$
>  <compound-smiles>
COc1cc(C(=O)c2ccc(Cl)c(N)c2)cc(OC)c1OC

>  <numeric-result>
800

$$$$
>  <compound-smiles>
COc1cc(C(=O)c2cc(N)cc(Cl)c2)cc(OC)c1OC

>  <numeric-result>
1400

$$$$
>  <compound-smiles>
COc1cc(C(=O)c2ccc(OC(C)C)c(N)c2)cc(OC)c1OC

>  <numeric-result>
900

$$$$
>  <compound-smiles>
COc1ccc(/C=C\c2cc(OC)c(OC)c(OC)c2)cc1N

>  <numeric-result>
8.2

$$$$
>  <compound-smiles>
COc1ccc(N)c(C(=O)c2cc(OC)c(OC)c(OC)c2)c1

>  <numeric-result>
127

$$$$
>  <compound-smiles>
COc1ccc(C(=O)c2cc(OC)c(OC)c(OC)c2)c(N)c1

>  <numeric-result>
32

$$$$
>  <compound-smiles>
COc1cc(N)cc(C(=O)c2cc(OC)c(OC)c(OC)c2)c1

>  <numeric-result>
590

$$$$
>  <compound-smiles>
CCCOc1ccc(C(=O)c2cc(OC)c(OC)c(OC)c2)cc1N

>  <numeric-result>
3800

$$$$
